Taken from patent US5279956A.

- experimental_target: APC (Homo sapiens, UniProt P04070)
- Construct: begins at amino acid residue position 158 and ends at 419; The light chain is 155 amino acid residues in length; tissue Factor IX concentrate from Immuno AG, Vienna; thrombin from Enzyme Research Laboratories
- Sequence (P04070 212-461): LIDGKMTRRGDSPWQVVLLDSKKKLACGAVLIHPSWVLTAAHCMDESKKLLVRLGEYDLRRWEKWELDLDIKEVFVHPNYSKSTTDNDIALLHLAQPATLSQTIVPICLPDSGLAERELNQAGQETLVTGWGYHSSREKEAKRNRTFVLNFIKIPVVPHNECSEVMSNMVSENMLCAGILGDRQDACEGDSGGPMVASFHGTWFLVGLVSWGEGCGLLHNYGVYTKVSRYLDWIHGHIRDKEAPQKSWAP
- Sequence (P04070 43-197): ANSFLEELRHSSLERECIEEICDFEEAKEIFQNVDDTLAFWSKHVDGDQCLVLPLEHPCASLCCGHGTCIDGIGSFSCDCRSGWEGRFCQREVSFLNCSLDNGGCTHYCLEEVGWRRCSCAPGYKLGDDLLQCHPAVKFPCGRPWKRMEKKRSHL
- assay_text: APC-catalyzed inactivation of Factor Va, read out by Factor Va-prothrombinase assay
- Assay type: biochemical
- study_conditions: 50 μM phospholipid vesicles, 0.25 nM APC, 10.0 nM Va; read-out: half-maximal inhibition of APC-catalyzed inactivation of Factor Va
No end group written: not given here.
value_type: pIC50
// pIC50: -log10(molar conc.)

### Prompt Identify measured pIC50 obtained with APC (Homo sapiens, UniProt P04070) for YGVYTKVSRYLDWIH-NH2 [peptide-(390-404), YGVYTKVSRYLDWIH] .
### Response 5.40
